- Tested on: human breast cancer cells MDA-MB-231
- assay: Cell viability test (Resazurin), MDA-MB-231 cells
- Format: cell-based
- recorded_conditions: MDA-MB-231 cells; grade of the IC50 of Table 2; read-out: evaluation of ability to inhibit cell growth activity (IC50)
So I've got a bunch of compounds here, and I need their IC50 values.

Record excerpt, results attached:
COC1O[C@]23C=C[C@@H]4[C@@]1(CC[C@]1(C)[C@@H]([C@H](C)C/C=C/C(C)(C)OC)CC[C@@]41C)[C@@H]2CC[C@H](O)C3(C)C (stereo partly shown) :: > 256 µM
C[C@H](C/C=C/C(C)(C)O)[C@H]1CC[C@@]2(C)[C@@H]3[C@@H](O[C@@H]4O[C@H](CO)[C@@H](O)[C@H](O)[C@H]4O)C=C4[C@@H](CC[C@H](O)C4(C)C)[C@]3(C=O)CC[C@]12C :: 16 to 64 µM
COC1O[C@]23C=C[C@@H]4[C@@]1(CC[C@]1(C)[C@@H]([C@H](C)C/C=C/C(C)(C)O)CC[C@@]41C)[C@@H]2CC[C@H](O)C3(C)C (stereo partly shown) :: 16 to 64 µM

Consider the record given below.
# input State the recorded IC50 for this entry: CC(=O)O[C@H]1C=C2[C@@H](CC[C@H](O)C2(C)C)[C@]2(C=O)CC[C@]3(C)[C@@H]([C@H](C)C[C@@H](O)C=C(C)C)CC[C@@]3(C)[C@H]12
# output < 8 µM

---

So I've got a bunch of compounds here, and I need their IC50 values.
- Tested on: human leukemia cells U937
- assay: Cell viability test (Resazurin), U937 cells
- Format: cell-based
- recorded_conditions: Homo sapiens, U-937, U937 cells; grade of the IC50 of Table 2; read-out: evaluation of ability to inhibit cell growth activity (IC50)

CO[C@@H]1O[C@]23C=C[C@@H]4[C@@]1(CC[C@]1(C)[C@@H]([C@H](C)C/C=C/C(C)(C)OC)CC[C@@]41C)[C@@H]2CC[C@H](O)C3(C)C [Compound 15] :: < 8 µM
CC(=O)O[C@H]1C=C2[C@@H](CC[C@H](OC(C)=O)C2(C)C)[C@]2(C=O)CC[C@]3(C)[C@@H]([C@H](C)C[C@@H](O)C=C(C)C)CC[C@@]3(C)[C@H]12 [Compound 5] :: < 8 µM

For every record below, what is its IC50?
1. CC(C)=C[C@H](O)C[C@@H](C)[C@H]1CC[C@@]2(C)[C@@H]3[C@@H](O)C=C4[C@@H](CC[C@H](O)C4(C)C)[C@]3(C=O)CC[C@]12C [Compound 2]
2. COC1O[C@]23C=C[C@@H]4[C@@]1(CC[C@]1(C)[C@@H]([C@H](C)C[C@@H](O)C=C(C)C)CC[C@@]41C)[C@@H]2CC[C@H](O)C3(C)C (stereo partly shown) [Compound 21]

# output
["< 8 µM", "< 8 µM"]

For every record below, what is its IC50?
1. CC(=O)O[C@@H](C=C(C)C)C[C@@H](C)[C@H]1CC[C@@]2(C)[C@@H]3[C@@H](O)C=C4[C@@H](CC[C@H](O)C4(C)C)[C@]3(C=O)CC[C@]12C [Compound 10]
2. COC1O[C@]23C=C[C@@H]4[C@@]1(CC[C@]1(C)[C@@H]([C@H](C)C/C=C/C(C)(C)O)CC[C@@]41C)[C@@H]2CC[C@H](O)C3(C)C (stereo partly shown) [Compound 19]
3. CC(C)=CC(=O)C[C@@H](C)[C@H]1CC[C@@]2(C)[C@@H]3[C@@H](O)C=C4[C@@H](CC[C@H](O)C4(C)C)[C@]3(C=O)CC[C@]12C [Compound 11]
4. CC(=O)O[C@H]1C=C2[C@@H](CC[C@H](OC(C)=O)C2(C)C)[C@]2(C=O)CC[C@]3(C)[C@@H]([C@H](C)C/C=C/C(C)(C)O)CC[C@@]3(C)[C@H]12 [Compound 4]
5. CO[C@H]1C=C2[C@@H](CC[C@H](O)C2(C)C)[C@]2(C=O)CC[C@]3(C)[C@@H]([C@H](C)C/C=C/C(C)(C)OC)CC[C@@]3(C)[C@H]12 [Compound 23]
6. CC(=O)O[C@H]1C=C2[C@@H](CC[C@H](O)C2(C)C)[C@]2(C=O)CC[C@]3(C)[C@@H]([C@H](C)C/C=C/C(C)(C)O)CC[C@@]3(C)[C@H]12 [Compound 9]

# output
< 8 µM
8 to 16 µM
64 to 256 µM
8 to 16 µM
< 8 µM
8 to 16 µM
